The binders listed here are annotated with their Kd.
experimentalSystem: T1, Human OX40 protein (hOX40-His) (human, UniProt P43489 29-214)
T1 construct: Soluble analyte in the SPR assay; also called His-tagged human OX40; not shown: His tag
T1 sequence: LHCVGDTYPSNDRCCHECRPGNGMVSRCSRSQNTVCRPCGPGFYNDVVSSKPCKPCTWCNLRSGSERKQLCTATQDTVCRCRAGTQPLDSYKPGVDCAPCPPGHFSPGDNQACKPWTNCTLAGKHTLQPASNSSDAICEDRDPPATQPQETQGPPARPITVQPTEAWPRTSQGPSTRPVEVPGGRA
testDetails: SPR, Biacore T200, antibody captured on Protein A chip, hOX40-His as analyte, 1:1 Langmuir fit
Numbers only; they are read as nM.

Please review the entries below; each comes with its answer.
binder | obsValue
9H3-H3K2-IgG1 (antibody, V domains shown, Humanized, with human IgG1 constant domains; also called 9H3 humanized antibody H3K2) VH: QVQLVESGGGVVQPGRSLRISCAVSGFSLTSYGVLWVRQAPGKGLEWLGVIWSGGSTDYNAAFISRLTISRDNSKSTVYFQMNSLRAEDTAVYYCAREEFGYWGQGTLVTVSS VL: DIQMTQSPSSLSASVGDRVTITCRASQDINNYLNWYQQKPGGAVKLLIYYTSRLHSGVPSRFSGSGSGTDFTLTISSLQPEDIATYYCQQTNTLPWTFGGGTKLEIKR | 3.34
9H3-H3K1-IgG1 (antibody, V domains shown, Humanized, with human IgG1 constant domains; also called 9H3 humanized antibody H3K1) VH: QVQLVESGGGVVQPGRSLRISCAVSGFSLTSYGVLWVRQAPGKGLEWLGVIWSGGSTDYNAAFISRLTISRDNSKSTVYFQMNSLRAEDTAVYYCAREEFGYWGQGTLVTVSS VL: DIQMTQSPSSLSASVGDRVTITCRASQDINNYLNWYQQKPGGAVKLLIYYTSRLHTGVPSRFSGSGSGTDFTLTISSLQPEDIATYYCQQTNTLPWTFGGGTKLEVKR | 2.49
5C1-mHvKv-IgG1 (antibody, V domains shown, Chimeric: mouse 5C1 variable domains with human IgG1 constant domains; also called 5C1 chimeric antibody) VH: EVQLQQSGTVLARPGASVKMSCKASGYSFTSYWMHWVKQRPGQGLEWIGTIYPGNSDTSNNQKFKGKAKLTAVTSASTAYMELSSLTNEDSAVYYCTTFYYRYEDYYAMDYWGQGTSVTVSS VL: DIVMTQSHKFMSTSVGDRVSITCKASQDVNTAVAWYQQKPGQSPKLLIYSASYRYTGVPDRFTGSGSGTDFTFTISSVQAEDLAVYYCQQHYSTPFTFGSGTKLEIK | 29.8
9H3-H2K2-IgG1 (antibody, V domains shown, Humanized, with human IgG1 constant domains; also called 9H3 humanized antibody H2K2) VH: QVQLVESGGGVVQPGRSLRISCAVSGFSLTSYGVLWVRQAPGKGLEWVAVIWSGGSTDYNAAFISRLTISRDNSKSTVYFQMNSLRAEDTAVYYCAREEFGYWGQGTLVTVSS VL: DIQMTQSPSSLSASVGDRVTITCRASQDINNYLNWYQQKPGGAVKLLIYYTSRLHSGVPSRFSGSGSGTDFTLTISSLQPEDIATYYCQQTNTLPWTFGGGTKLEIKR | 3.84
9H3-mHvKv-IgG1 (antibody, V domains shown, Chimeric: mouse 9H3 variable domains with human IgG1 constant domains (CL, CH1, CH2, CH3); also called 9H3 chimeric antibody; chimeric anti-hOX40 antibody) VH: QVQLKQSGPGLVQPSQSLSITCTVSGFSLTSYGVLWVRQPPGKGLEWLGVIWSGGSTDYNAAFISRLSISKDNSKSQVFFKMNSLQADDTAIYYCAREEFGYWGQGTLVTVSA VL: DIQMTQTTSSLSASLGDRVTISCRASQDINNYLNWYQQKPDGTVKLLIYYTSRLHSGVPSRFSGSGSGTDYSLTISNLEQEDIATYFCQQTNTLPWTFGGGTKLEIK | 2.31
9H3-H3K3-IgG1 (antibody, V domains shown, Humanized, with human IgG1 constant domains; also called 9H3 humanized antibody H3K3) VH: QVQLVESGGGVVQPGRSLRISCAVSGFSLTSYGVLWVRQAPGKGLEWLGVIWSGGSTDYNAAFISRLTISRDNSKSTVYFQMNSLRAEDTAVYYCAREEFGYWGQGTLVTVSS VL: DIQMTQSPSSLSASVGDRVTITCRASQDINNYLNWYQQKPGGAVKLLIYYTSRLHSGVPSRFSGSGSGTDYTLTISSLQPEDIATYFCQQTNTLPWTFGGGTKLEIKR | 1.92
9A4 (mouse antibody) (antibody, V domains shown, also called 07-9A4) VH: EVQLQQFGAELVKPGASVKISCKASGYTFTDYNMDWVKQSHGKSLEWIGDINPNYDSTSYNQKFKGKATLTVDKSSSTAYMELRSLTSEDTAVYYCARGGYGNYVDYFDYWGQGTTLTVSS VL: NIVMTQSPKSMSMSVGERVTLSCKASENVVTYVSWYQQKPEQSPKLLIYGASNRYTGVPDRFTGSGSATDFTLTISSVQAEDLADYHCGQSYSYPYTFGGGTKLEIK | 21.6

--- query ---
Value of Kd reported for the binder 5D10-mHvKv-IgG1 (antibody, V domains shown, Chimeric: mouse 5D10 variable domains with human IgG1 constant domains; also called 5D10 chimeric antibody) VH: QVQLKESGPGLVAPSQSLSITCTVSGFSLTSYGVHWIRQPPGKGLEWLGVIWAGGNTNYNSALMSRLSISKDNSKSQVFLKMNSLQTDDTAMYNCASYDGYYGWFAYWGQGTLVTVSV VL: DIQMTQTTSSLSASLGDRVTISCRASQDISYYLNWYQQKPDGTVKLLIYYTSRLHSGVPSRFSGSGSGTDYSLTISNLEQEDIATYFCQQGHTLPWTFGGGTKLEIK is 46.5

This collection of values is drawn from patent US20210206866A1.
